Tested on: SD rats
experiment: Effect on rat hemodynamics (left ventricular pressure, heart rate)
applied-conditions: 1 mg/kg; anesthetized SD rats; 3 min after administration
measured-metric: LVEDP

[[record]]
molecule = "COc1ccccc1C[N+]1(CCCC(=O)c2ccc(F)cc2)CCC(O)(c2ccc(Cl)cc2)CC1 (stereo not drawn) [Compound X3]"
result = "23.69 ± 3.77"

[[record]]
molecule = "COc1ccc(C[N+]2(CCCC(=O)c3ccc(F)cc3)CCC(O)(c3ccc(Cl)cc3)CC2)cc1 (stereo not drawn) [Compound X1]"
result = "29.66 ± 4.33"

[[record]]
molecule = "COc1ccc(CCN(C)CCCC(C#N)(c2ccc(OC)c(OC)c2)C(C)C)cc1OC (stereo not drawn) [Ver, verapamil]"
result = "42.21 ± 6.23"

[[record]]
molecule = "COc1ccc([C@@H]2Sc3ccccc3N(CCN(C)C)C(=O)[C@@H]2OC(C)=O)cc1 [Dil, diltiazem]"
result = "38.51 ± 7.45"

[[record]]
molecule = "COc1cccc(C[N+]2(CCCC(=O)c3ccc(F)cc3)CCC(O)(c3ccc(Cl)cc3)CC2)c1 (stereo not drawn) [Compound X2]"
result = "26.93 ± 3.26"

[[record]]
molecule = "COC(=O)C1=C(C)NC(C)=C(C(=O)OC)C1c1ccccc1[N+](=O)[O-] [Nif, nifedipine]"
result = "45.50 ± 6.43"

